- tested target: human hNET (Homo sapiens, UniProt P23975)
- Construct: expressed in transfected cells
- Sequence (P23975 whole entry): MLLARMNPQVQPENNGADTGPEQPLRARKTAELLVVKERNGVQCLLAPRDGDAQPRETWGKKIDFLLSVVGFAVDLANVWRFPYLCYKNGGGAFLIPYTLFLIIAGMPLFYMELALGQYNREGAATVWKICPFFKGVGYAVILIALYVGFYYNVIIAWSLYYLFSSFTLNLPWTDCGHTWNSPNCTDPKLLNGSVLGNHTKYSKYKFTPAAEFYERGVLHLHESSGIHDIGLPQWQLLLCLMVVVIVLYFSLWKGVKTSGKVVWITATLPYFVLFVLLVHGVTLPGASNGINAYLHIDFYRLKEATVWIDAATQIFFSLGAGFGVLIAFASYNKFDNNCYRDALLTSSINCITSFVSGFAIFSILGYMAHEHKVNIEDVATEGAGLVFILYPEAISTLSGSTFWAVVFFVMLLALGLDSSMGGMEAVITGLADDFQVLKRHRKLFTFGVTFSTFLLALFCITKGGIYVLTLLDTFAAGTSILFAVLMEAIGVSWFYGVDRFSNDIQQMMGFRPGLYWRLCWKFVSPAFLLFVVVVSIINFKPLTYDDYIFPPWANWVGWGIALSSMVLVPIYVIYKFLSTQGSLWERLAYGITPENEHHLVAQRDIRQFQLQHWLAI
- protocol summary: Norepinephrine (NE) uptake assay in MDCK-Net6 cells
- Type: cell-based
- test parameters: at 30 μM test compound, [3H]NE uptake
Structures can show the parent of a compound that is named as a salt.
value kind: inhibition at 30 µM (%)

Field: example entries. Status: answers known.
CN1CCN(CC(c2cccc(Cl)c2)C2(O)CCC(C(C)(C)C)CC2)CC1 (centres unmarked) [Example 101, dihydrochloride] | 100
CC1(C)CC(C)(C)CC(O)(C(CN2CCNCC2)c2cccc(Br)c2)C1 (centres unmarked) [Example 87, dihydrochloride] | 47
OC1(C(CN2CCNCC2)c2cccc(Br)c2)C2CC3CC(C2)CC1C3 (centres unmarked) [Example 107, dihydrochloride] | 67

(I) COc1ccc(C(CN2CCNCC2)C2(O)CCOCC2)cc1Br (centres unmarked) [Example 110, dihydrochloride]
(II) CC(C)(C)C1CCC(O)(C(CN2CCNCC2)c2cccc(Br)c2)CC1 (centres unmarked) [Example 96, dihydrochloride]
In: Of I and II , which shows the smaller inhibition at 30 µM value? Response format: the label of the selected entry.
Out: I
